Values compiled from patent US20240270813A1.

Tested Target: HA-1 “H” peptide (…) presented by HLA-A*02:01 on antigen presenting cells (human)
Experimental Details: cell-based or functional assay
Property: EC50 values for CD69 Expression (ng/mL)
Use ng/mL as the unit, but write only the number.

Solved entries (count: 3):
* TCR AE (TCR, V domains shown) V domain 1: AQSVAQPEDQVNVAEGNPLTVKCTYSVSGNPYLFWYVQYPNRGLQFLLKYITGDNLVKGSYGFEAEFNKSQTSFHLKKPSALVSDSALYFCAVRCPTSGTYKYIFGTGTRLKVLA V domain 2: DTGVSQDPRHKITKRGQNVTFRCDPISEHNRLYWYRQTLGQGPEFLTYFQNEAQLEKSRLLSDRFSAERPKGSFSTLEIQRTEQGDSAMYLCASSLVSGNEQFFGPGTRLTVLE | 2.77
* TCR AI (TCR, V domains shown) V domain 1: AQSVAQPEDQVNVAEGNPLTVKCTYSVSGNPYLFWYVQYPNRGLQFLLKYITGDNLVKGSYGFEAEFNKSQTSFHLKKPSALVSDSALYFCAVREPTSGTYKYIFGTGTRLKVLA V domain 2: DTGVSQDPRHKITKRGQNVTFRCDPISEHNRLYWYRQTLGQGPEFLTYFQNEAQLEKSRLLSDRFSAERPKGSFSTLEIQRTEQGDSAMYLCASSLVNGNEQFFGPGTRLTVLE | 9.2
* TCR AH (TCR, V domains shown) V domain 1: AQSVAQPEDQVNVAEGNPLTVKCTYSVSGNPYLFWYVQYPNRGLQFLLKYITGDNLVKGSYGFEAEFNKSQTSFHLKKPSALVSDSALYFCAVRVPTSGTYKYIFGTGTRLKVLA V domain 2: DTGVSQDPRHKITKRGQNVTFRCDPISEHNRLYWYRQTLGQGPEFLTYFQNEAQLEKSRLLSDRFSAERPKGSFSTLEIQRTEQGDSAMYLCASSLVSGNEQFFGPGTRLTVLE | 3.4

Q: Please supply the value of reported EC50 values for CD69 Expression for the item TCR AG (TCR, V domains shown) V domain 1: AQSVAQPEDQVNVAEGNPLTVKCTYSVSGNPYLFWYVQYPNRGLQFLLKYITGDNLVKGSYGFEAEFNKSQTSFHLKKPSALVSDSALYFCAVRTPTSGTYKYIFGTGTRLKVLA V domain 2: DTGVSQDPRHKITKRGQNVTFRCDPISEHNRLYWYRQTLGQGPEFLTYFQNEAQLEKSRLLSDRFSAERPKGSFSTLEIQRTEQGDSAMYLCASSLVSGNEQFFGPGTRLTVLE
A: 2.27
